# Lookup of reported AUC(0-t) keyed by entry
test: PK study using rats, oral administration, plasma levels by HPLC-MS/MS; format: in vivo, Sprague–Dawley rats; details: Sprague-Dawley, rat, plasma, po, 25 mg/kg, oral (gavage) 25 mg/kg, mean ± SD, second AUC0-t line of Table 3
The answer is to be given in µg·h/mL; state only the numeric part.

Cc1cccc(CC2CCC3C4CCCN5CCCC(CN3C2=O)C45)c1 (centres unmarked); 7.48

Proceeding to the next compound to report its AUC(0-t).
**Query** Need AUC(0-t), item Cc1ccc(CC2CCC3C4CCCN5CCCC(CN3C2=O)C45)cc1 (centres unmarked)
**Result** 7.92
